src = ChEMBL document CHEMBL1135665

Reported pKi values for a set of compounds
Biological target: Mu-type opioid receptor (Rattus norvegicus)
Sequence (P33535 whole entry): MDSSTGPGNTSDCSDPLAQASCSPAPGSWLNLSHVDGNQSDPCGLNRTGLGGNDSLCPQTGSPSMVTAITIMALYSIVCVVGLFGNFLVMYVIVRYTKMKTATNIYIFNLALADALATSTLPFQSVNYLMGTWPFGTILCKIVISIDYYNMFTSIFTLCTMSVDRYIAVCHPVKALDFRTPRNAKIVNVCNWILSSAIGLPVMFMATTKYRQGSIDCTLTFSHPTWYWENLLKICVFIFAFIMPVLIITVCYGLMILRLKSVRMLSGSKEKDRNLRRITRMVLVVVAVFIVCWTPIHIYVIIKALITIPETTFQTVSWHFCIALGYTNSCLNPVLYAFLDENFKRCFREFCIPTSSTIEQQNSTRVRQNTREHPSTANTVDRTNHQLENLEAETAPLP
Schema: pKi number; meaning minus log10 of the concentration expressed in molar units.

For orientation, consider the following solved cases.
{"chem-smiles": "CCCO[C@@]12Cc3c([nH]c4ccccc34)[C@]3(C)Oc4c(O)ccc5c4[C@@]31CCN(C)[C@@H]2C5", "reported-endpoint": "pKi", "reported-result": 7.52}
{"chem-smiles": "CO[C@@]12Cc3c([nH]c4ccccc34)[C@]3(C)Oc4c(O)ccc5c4[C@@]31CCN(C)[C@@H]2C5", "reported-endpoint": "pKi", "reported-result": 7.24}
{"chem-smiles": "C=CCN1CC[C@]23c4c5ccc(O)c4O[C@H]2c2c(c4ccccc4n2C)C[C@@]3(OC)[C@H]1C5", "reported-endpoint": "pKi", "reported-result": 6.14}

With those in mind, consider the next compound.
q: Request the reported pKi associated with CCO[C@@]12Cc3c(oc4ccccc34)[C@@H]3Oc4c(O)ccc5c4[C@@]31CCN(CC1CC1)[C@@H]2C5
a: 6.73
